Data provenance is ChEMBL document CHEMBL4513216.

# assayRemarks: Toxicity liver stage against HepG2, at 10uM
# Assay type: cell-based
# Set-up: test concentration 10 uM, cell line HepG2-A16-CD81EGFP
# measurementConditions: human, HepG2-A16-CD81EGFP cells; read-out: INHIBITION
Below: a set of entries, each annotated with reported cytotoxicity at 10 µM.
Could you give me the number in %? Just the number is fine.

A selection of reference data follows.
* Cc1nc(CN(C)C2CCN(CC3CCOCC3)C2)no1 (stereo unspecified) | -4.68
* O=C(C1CC1)N1CCCC1C1CCN(Cc2ccccc2)CC1 (stereo unspecified) | -9.37
* Cn1cc(CC2CC(=O)N(Cc3ccc(OC(F)F)cc3)C2=O)cn1 (stereo unspecified) | 6.6
* CCN(C(=O)COc1nc(Cc2ccc(F)cc2)no1)C1CC1 | 5.09
* CCCS(=O)(=O)N1CCC2(CCCN(Cc3cccc(F)c3F)C2=O)C1 (stereo unspecified) | 10.3

Q: Value lookup for cytotoxicity at 10 µM; key = Clc1snnc1CN1CCOC(CNc2cccnn2)C1 (stereo unspecified)
Ans: -11

Q: Thanks! And CCN(C)Cc1cccc(CNC(=O)NCCc2ccccn2)c1 ?
Ans: 2.8

Q: Moving on to O=C(CCSc1ccccc1F)NCc1cccnc1
Ans: -4.48

Q: Continue with Cc1nnc(NC(=O)CN(C)C2CCCN(c3cccnn3)C2)s1 (stereo unspecified)
Ans: -5.64

Q: Quick one: CC(C)N1CCC(C(=O)N2CCC(C(O)c3nccn3C)CC2)CC1 (stereo unspecified)
Ans: -2.7

Q: Same for O=C(c1cnccn1)N1C[C@@H]2C[C@@H](c3nc(C4CC4)cs3)O[C@@H]2C1
Ans: -118

###

# assayRemarks: Toxicity liver stage against HepG2, at 10uM
# Format: cell-based
# Set-up: test concentration 10 uM, cell line HepG2-A16-CD81EGFP
# measurementConditions: human, HepG2-A16-CD81EGFP cells; read-out: INHIBITION
measuredParameter: cytotoxicity at 10 µM (%)
Answer in %, number only, no unit symbol.

- O=C(c1cccc(S(=O)(=O)NCCc2cscn2)c1)N1CCOCC1: 5.67

Q: For the compound shown here, O=S(=O)(Cc1ccccc1)c1nnc(N2CCOCC2)s1 , give the reported cytotoxicity at 10 µM.
Ans: -4.65

Q: And the next one, O=C(O)[C@@H]1CN(Cc2ccc(-c3cc[nH]n3)s2)C[C@H]1C1CC1 ?
Ans: 5.13

Q: // next record Cn1cc(CN2CCc3nc4sccc4c(=O)n3CC2)cn1
Ans: -2.19

Q: Now give it for Cc1cccc(N2CC[C@H]3[C@H]2CCN3C(=O)c2cnn(C)c2)n1 too.
Ans: 1.24

Q: Next: CN(CCO)C(=O)Nc1ccn(-c2cccc(C(F)(F)F)c2)n1
Ans: 4.16

Q: How about this compound: Cc1cnc(N2C[C@@H]3[C@@H](C(=O)NCC(C)C)CCS(=O)(=O)[C@@H]3C2)nc1
Ans: -155

Q: Also need CCN(CC)C(=O)C1CCC2(CCNCC2)O1 (stereo not drawn) , thanks.
Ans: -162

Q: Now try COCC(NC(=O)c1ccco1)c1cccc(C(F)(F)F)c1 (stereo not drawn) .
Ans: -3.96

Q: Proceed to Cn1cnnc1C1CCCN(C(=O)c2ccc3c(c2)OCCCO3)C1 (stereo not drawn)
Ans: 3.66

Q: Next compound: CC(C)CCN1C[C@@H]2C[C@H](C(=O)Nc3cccnc3)[C@H](C1)O2
Ans: -82.5

Q: Now the same for Cc1nc[nH]c1CN1CCN(C(=O)CN2CCCC2)[C@H]2CS(=O)(=O)C[C@H]21
Ans: -7.21

Q: CCOC1COC2(CCN(Cc3cccc(C)n3)CC2)C1 (stereo not drawn) ?
Ans: 11.8

Q: Then this compound: COCCCSc1ccc(NCc2scnc2C)cc1
Ans: 55.3
